Tested on: PPARg DBDmut:RXRa IVT, anti-PPARg (DBD mutation: PPARg1 K132A/R137A, NR concentration 270 nM, RXRa partner concentration 90 nM)
Test: PBM binding z-score (relative to random genomic background probes); higher = stronger binding; sequences stand for … in GC…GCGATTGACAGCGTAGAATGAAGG
Rule: PBM binding z-score of -0.1 or more gives met; anything lower gives not met.

Decide: is the reported value of PBM binding z-score for CATACAGAGTCAGCTAGGCCAGAGTAGGGACGGC equal to or greater than -0.1?
met

Please check the record ATATGTAGGTTATCGGGTCATCCAGTTTGCGCAT and state if its PBM binding z-score is at or above -0.1.
met

Does the reported PBM binding z-score for TTACCACGGTGAAAGGTCGTTGATGCACGCCTTG fall at or above the -0.1 mark?
met

Quick check, PBM binding z-score >= -0.1? GTACCAAGGTGAACAGGTCGTTGATGAGTAGGCG
met

PBM binding z-score >= -0.1 for ACTCGGAGGACAATGGTCAGAGCTACGCCAGTGA ?
not met

Does the reported PBM binding z-score for GGAACGAGGGCAAAGTTGATGGCATCTGTCGACG fall at or above the -0.1 mark?
met

Identify whether the reported PBM binding z-score of the following sequence is -0.1 or greater: GATACAGGATCAAGGCCAGAGTACGCGTATTGAT
met

Exam item: decide whether the reported PBM binding z-score for ATATGTAGGTTACATCCGGGTCATGCAGGCTATG is at least -0.1.
met

Hi, just wondering whether CGTCCAAGGTCAGCAGGTCAGTGCAAGCGACGTG shows PBM binding z-score of -0.1 or higher.
not met

Exam item: decide whether the reported PBM binding z-score for CCTCCGAGGACAACAGGAGGTCAGAGCTGCCAGA is at least -0.1.
not met

Is PBM binding z-score at least -0.1? Consider GCTTACGGGTCAAAGGTTATCGCATGAATAGAAT
met

Answer whether PBM binding z-score of TTACCAAGGTGAAAGTTCGTTGATGCACGCCTTG is greater than or equal to -0.1.
met

// inclusive: PBM binding z-score at least -0.1? input: CCGACAGGGGCAGAAAGGTTACCATACCATCCGG
not met

# bool: PBM binding z-score of CCTGCTAGGTCAATGGTCCGCTAAAGCAGCTCGC >= -0.1
not met

Is reported PBM binding z-score greater than or equal to -0.1 here: CGAACGAGGGCATGAGTTGATAGCTAATGCCGAT
met

Evaluate CAAACTAGGTCACAGAGGTCAAAGGCCGTGCGTA : PBM binding z-score at minimum -0.1?
met

Hi, just wondering whether GCTTACGGGTCAATGGTTATAGCATGAATAGAAT shows PBM binding z-score of -0.1 or higher.
met

# check: PBM binding z-score of GCTAGCAGGCCATTTGGGTCACTCTATGACGGGC is greater than or equal to -0.1
not met

Would you say TCGAGTAGGTTAGGCGCATTCAGAATGGCGTCGA shows PBM binding z-score at minimum -0.1?
not met

Entry TCTATTAGTTGAAGGGCAACCTACGAGTCCGTTT : is its PBM binding z-score no less than -0.1?
met

Please indicate if the recorded PBM binding z-score for TTTTGTAGATCAGCAGGTTAAGAAAGCTGGCCAA meets or exceeds -0.1.
not met

Would you say GCAGACCGGTGAAACGCAGGTAACTCAGGGTGGC shows PBM binding z-score at minimum -0.1?
not met

hey, is PBM binding z-score for this one >= -0.1? ATCTCTAGGTAAACTTCAGTGAAAGATCGATAGA
met

Entry CCTTACGGGGCACGAGGTTATAGCACGACGAGCG : is its PBM binding z-score no less than -0.1?
met

Has TGAATGAGGTAAAAGATCAGGGAACGTGGCGTCG a recorded PBM binding z-score greater than or equal to -0.1?
met

Given the entry CCTCGGAGGACAGAAGGTCAGAGCGGTCCGCTTT , answer whether its PBM binding z-score meets or surpasses -0.1.
not met

Reported PBM binding z-score at or above -0.1? TCAGACAGGTGAAGGTAGCTCAGGTACGCAGTCG
met

Assess whether reported PBM binding z-score for TCATATAGGTAAAAGGTGAAAGCCGGTGTGGTAA sits at -0.1 or higher.
met

Exam item: decide whether the reported PBM binding z-score for TCGCCTAGGTCAGATCGGGCCAGTATACGCTATA is at least -0.1.
not met

Determine whether measured PBM binding z-score meets or exceeds -0.1 for TCATATAGGTAAAGGTGAAAGACGAACGATATGA
met

Determine whether measured PBM binding z-score meets or exceeds -0.1 for CAAACTAGGTCACCGGCAGGTCAAAGTCCGCATG
met

Check if PBM binding z-score >= -0.1 (inclusive). Item: TCAGACAGGTGAAGGTAACTCGGGTACGCAGTCG
not met

Quick check: does TCTTGTAGATCAGCAGGGTAAGAAAGCTGGCCAA have PBM binding z-score greater than or equal to -0.1?
not met

In plain terms: is recorded PBM binding z-score at least -0.1 for CGTCAAAGTTCAACTAAGGTATCGTAAAGCACGC ?
met

Textbook exercise: given the entry CCTATTAGTTGACCATAAGGGCAACCCAAGCTCG , state whether its PBM binding z-score is greater than or equal to -0.1.
met

Entry CCAGACTGGTGAAAGGTAACTCAGTCTGGTACGC : is its PBM binding z-score no less than -0.1?
not met

API: above_or_equal(metric=PBM binding z-score, cutoff=-0.1) for item ATCTCTGGGTAAAAGTTCAGTGAATCCCGAGGAT
met

Could you verify whether the entry GCTATTAGTTGAAAGCGCAACCGAATGATTCTCG shows PBM binding z-score of no less than -0.1?
not met

// inclusive: PBM binding z-score at least -0.1? input: ACTATTAGTTGCGACGAGGGCAACCGATAGGTTG
met

For this sequence, is measured PBM binding z-score -0.1 or higher? TGTCAAAGATCAAAGGTAACGTAAGTATCCACAC
met

Reported PBM binding z-score reaches at least -0.1 for GGAACGAGGGCAGGTTGATAGCAGAGTTTGATGG ?
not met

Decide: is the reported value of PBM binding z-score for TCTGCTAGGTCCGTTGGTCAGCTAACGAGCTGCC equal to or greater than -0.1?
not met

Say whether TCTTGTAGATCAAGCAGATTAAGAAAGCCTGAGT shows PBM binding z-score of -0.1 or more.
not met
